Molecular target: HLA-B*15:01
Assay: IEDB peptide-MHC binding, purified MHC/direct/fluorescence; filed as Kd, often an IC50 or EC50 that approximates it; bounds were set here for any values at or beyond the usual limits of such assays
Conditions: source organism: Pseudomonas aeruginosa
pKd: −log10 of the molar value.
OBSERVABLE: pKd

INPUT SEQUENCE | OBSERVABLE | VALUE MODIFIER | NUMBER
ILGRYLPEF | pKd | = | 6.82
RSFAERLDR | pKd | ≤ | 4.70

----------
pKd: recorded values
Biological target: HLA-A*02:06
Assay: IEDB peptide-MHC binding, purified MHC/competitive/radioactivity; filed as Kd, often an IC50 or EC50 that approximates it; bounds were set here for any values at or beyond the usual limits of such assays
Conditions: source organism: Vaccinia virus WR
pKd: −log10 of the molar value.
OBSERVABLE: pKd

INPUT SEQUENCE | VALUE MODIFIER | NUMBER
TIDAINKCV | = | 6.39
KQNKFGDSPL | = | 5.29
PLHIVCSKT | = | 5.41
NTIDKSSPL | = | 7.73
KQYIVATLMK | = | 4.94
MLKLFTHDIM | ≤ | 4.69
EVLMSPCRM | = | 4.93
KLLYAAEMV | = | 7.75
GIIITVGML | = | 4.74
IISTDQDTM | = | 5.63
IINSVSIILA | = | 6.02
ISIIVLFQR | = | 5.04
VIVVPVIDRL | = | 4.95
HQRRLVKLL | ≤ | 4.67
LIVILFIMFM | = | 6.92
LINLVQYRIL | = | 4.80
IIGHIGHHYI | = | 5.87
YIKDLKHAT | ≤ | 4.40
TLFGRGVIDT | = | 5.48
ELAYYNSCML | = | 5.45
DVNSVQFSIL | = | 5.47
KILSDENYL | = | 7.56
PLKDVERLQM | ≤ | 4.43
IASKINNNRI | = | 5.03
TTELNIVDEI | ≤ | 4.67
WLGAAITLVV | = | 5.74
EIVKNIREGT | ≤ | 4.22
FIASAPQQL | = | 7.05

----------
Kd: recorded values
Molecular target: HLA-A*01:01
Experiment: IEDB peptide-MHC binding, purified MHC/competitive/radioactivity; filed as Kd, often an IC50 or EC50 that approximates it; bounds were set here for any values at or beyond the usual limits of such assays
Settings: source organism: Mammarenavirus lassaense
OBSERVABLE: Kd (nM)

INPUT SEQUENCE | VALUE MODIFIER | NUMBER
ESDGKPQKV | = | 188
RYWYLNHTV | ≥ | 28200

----------
Target: HLA-A*31:01
Test: IEDB peptide-MHC binding, purified MHC/competitive/fluorescence; filed as Kd, often an IC50 or EC50 that approximates it; bounds were set here for any values at or beyond the usual limits of such assays
Conditions: source organism: Lassa virus Josiah
pKd: −log10 of the molar value.

INPUT SEQUENCE | pKd
KLIDIALSK | 6.85

----------
Biological target: HLA-A*01:01
Test: IEDB peptide-MHC binding, purified MHC/direct/fluorescence; filed as Kd, often an IC50 or EC50 that approximates it; bounds were set here for any values at or beyond the usual limits of such assays
Conditions: source organism: Shigella dysenteriae
pKd: −log10 of the molar value.

INPUT SEQUENCE | EXPERIMENTAL TARGET | pKd
AEMRETHWL | HLA-A*01:01 | ≤ 4.70
